Origin of values: the supplement of paper PMC9170038

Tested on: K4 kissing-loop RNA reporter;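 also: bound reporter read as fluorescence of individual clusters on recovered sequencing chips by microscopy, with normalized cluster intensities fitted with a binding model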
MEASUREMENT DESCRIPTION: apparent KD of K4 kissing-loop reporter; higher = weaker reporter binding
SETUP CONDITIONS: Eterna round: R107; input ligand: tryptophan 2.4 mM
Entries annotated with measured apparent KD of K4 kissing-loop reporter
MEASURED ENDPOINT: apparent KD of K4 kissing-loop reporter (nM)

> print(dat)
                             entry.sequence  unit.abbreviation  numeric.readout
1  GAGAUAGCGACGGCCGCCACUAGUGAUGUUAGUGCGGGUAGAUAGAUACUUGAACAGAAAUGACGUAGGACCGGGUCAGAUAGAG [#02 K4 Tryptophan B Exclusion]                 nM              149
2  UGUACCGAGACAGGAUAUGUCGUCGAAAGACGAAAUGGAGUGAUGUUCCUUAAACUGCGAAAGCAGACAGAAGGGUCUUGGUACU [FmnBS 29 A10+U76]                 nM              176
3  CUAGGCCCUCGGCGGGACAUUGCGUGGGAAGGAGCGCAGAUAACUGCAGGUAGGUCGCCCAGUGAUGUUGGGCGAAUAUUGGUCA [Esinabige]                 nM              110
4  AAGCAGUCACUCUAAGCCAUCGAAGAUGGACGAGGACCGGUACGGCCGCCACUCGGAGUGAUGUUCCGAAGACUGCAAAAUAAAA                 nM              399
5  UCUCUUCUCAGUGAUGUUGAGUAAUCGGAAGGAGCGCGUGAAAACGCAGGUAGGUCGCCGAUUUGUGAAGUAUCUUCGCAAGAGA [Arginine A K4 26]                 nM              300
6  UGGAUAUAGUGAUGUUAUAUAGAGAUUGAUACCAGUUAAGAGAAUAGCCCUUGGCAGCAGAAAGAAGUAUCAUUAGAGAAGAAUG [ExTheophyl.Ac]                 nM              177
